Data origin: paper PMC8395040

quantity-kind: melting point

INSERT INTO assay_data (compound, quantity_kind, reading) VALUES
  ('CCCCCCn1cnc2c(-c3ccc(OC(F)(F)F)cc3)nc(N3CCN(c4ccccc4)CC3)nc21 [Compound 4k]', 'melting point', '99 to 101 °C'),
  ('CCCCCn1cnc2c(-c3ccc(OC(F)(F)F)cc3)nc(NCC3CCCCC3)nc21 [Compound 4h]', 'melting point', '78 to 79 °C'),
  ('CCCCCCn1cnc2c(-c3ccc(OC(F)(F)F)cc3)nc(N3CCN(c4ccc(OC)cc4)CC3)nc21 [Compound 4q]', 'melting point', '144 to 145 °C'),
  ('CCCCCCn1cnc2c(-c3ccc(OC(F)(F)F)cc3)nc(NC3CCCCC3)nc21 [Compound 4f]', 'melting point', '84 to 86 °C'),
  ('CCCCCn1cnc2c(-c3ccc(OC(F)(F)F)cc3)nc(N3CCN(c4ccc(Cl)cc4)CC3)nc21 [Compound 4l]', 'melting point', '147 to 149 °C'),
  ('CCCCn1cnc2c(-c3ccc(OC(F)(F)F)cc3)nc(NCC3CCCCC3)nc21 [Compound 4g]', 'melting point', '88 to 89 °C');

Recorded melting point of CCCCCn1cnc2c(-c3ccc(OC(F)(F)F)cc3)nc(N3CCN(c4ccc(OC)cc4)CC3)nc21 [Compound 4p] , please.
118 to 120 °C

Recorded melting point of CCCCCCn1cnc2c(-c3ccc(OC(F)(F)F)cc3)nc(N3CCN(c4ccc(Cl)cc4)CC3)nc21 [Compound 4m] , please.
126 to 128 °C

Recorded melting point of CCCCCn1cnc2c(-c3ccc(OC(F)(F)F)cc3)nc(N3CCN(c4ccncc4)CC3)nc21 [Compound 4r] , please.
109 to 110 °C

Recorded melting point of CCCCCCn1cnc2c(-c3ccc(OC(F)(F)F)cc3)nc(N3CCN(c4ccncc4)CC3)nc21 [Compound 4s] , please.
153 to 155 °C

Recorded melting point of CCCCCCn1cnc2c(-c3ccc(OC(F)(F)F)cc3)nc(NC3CCCC3)nc21 [Compound 4c] , please.
58 to 60 °C

Recorded melting point of CCCCn1cnc2c(-c3ccc(OC(F)(F)F)cc3)nc(NC3CCCC3)nc21 [Compound 4a] , please.
93 to 95 °C

Recorded melting point of CCCCCCn1cnc2c(-c3ccc(OC(F)(F)F)cc3)nc(N3CCN(c4ccc([N+](=O)[O-])cc4)CC3)nc21 [Compound 4o] , please.
142 to 144 °C

Recorded melting point of CCCCCn1cnc2c(-c3ccc(OC(F)(F)F)cc3)nc(NC3CCCCC3)nc21 [Compound 4e] , please.
108 to 110 °C

Recorded melting point of CCCCCn1cnc2c(-c3ccc(OC(F)(F)F)cc3)nc(N3CCN(c4ccc([N+](=O)[O-])cc4)CC3)nc21 [Compound 4n] , please.
180 to 181 °C
